FYI, the data here is from the supplement of paper PMC11246515.

measurement-notes: total protein half-life in vivo (active degradation + dilution); higher = more stable protein
experimental-parameters: wild type E. coli NCM3722; growth: C-lim chemostat; doubling time 3 h
attribute-measured: total protein half-life in vivo

>>> result("MKYKHLILSLSLIMLGPLAHAEEIGSVDTVFKMIGPDHKIVVEAFDDPDVKNVTCYVSRAKTGGIKGGLGLAEDTSDAAISCQQVGPIELSDRIKNGKAQGEVVFKKRTSLVFKSLQVVRFYDAKRNALAYLAYSDKVVEGSPKNAISAVPVMPWRQ [P0AE91]")
"2.92 h"
>>> result("MKKIPLGTTDITLSRMGLGTWAIGGGPAWNGDLDRQICIDTILEAHRCGINLIDTAPGYNFGNSEVIVGQALKKLPREQVVVETKCGIVWERKGSLFNKVGDRQLYKNLSPESIREEVAASLQRLGIDYIDIYMTHWQSVPPFFTPIAETVAVLNELKSEGKIRAIGAANVDADHIREYLQYGELDIIQAKYSILDRAMENELLPLCRDNGIVVQVYSPLEQGLLTGTITRDYVPGGARANKVWFQRENMLKVIDMLEQWQPLCARYQCTIPTLALAWILKQSDLISILSGATAPEQVRENVAALNINLSDADATLMREMAEALER")
"2.96 h"
>>> result("MTQGAVKTTGKRSRAVSAKKKAILSAALDTFSQFGFHGTRLEQIAELAGVSKTNLLYYFPSKEALYIAVLRQILDIWLAPLKAFREDFAPLAAIKEYIRLKLEVSRDYPQASRLFCMEMLAGAPLLMDELTGDLKALIDEKSALIAGWVKSGKLAPIDPQHLIFMIWASTQHYADFAPQVEAVTGATLRDEVFFNQTVENVQRIIIEGIRPR [P0ACU2]")
"2.31 h"
